# tested target: hSERT (Homo sapiens)
# Construct: expressed in transfected cells
# Format: cell-based
# measurement conditions: batch release, % efflux of total uptake, compounds approximately at IC50 concentration
Please enter Criterion met where hSERT-mediated efflux, predicted (LS) mean diff, No mon - Mon is greater than or equal to -6, and Criterion not met where it is lower.

INSERT INTO results (compound, tested_target, assigned_class) VALUES
  ('CCCC(Cc1ccc(C)cc1)N1CCCC1 (stereo not shown) [4-Methylprolintane]', 'hSERT (Homo sapiens)', 'Criterion met'),
  ('CCCC(Cc1ccccc1F)N1CCCC1 (stereo not shown) [2-Fluoroprolintane]', 'hSERT (Homo sapiens)', 'Criterion not met'),
  ('CCCC(Cc1cccc(F)c1)N1CCCC1 (stereo not shown) [3-Fluoroprolintane]', 'hSERT (Homo sapiens)', 'Criterion met'),
  ('CCCC(Cc1cccc(C)c1)N1CCCC1 (stereo not shown) [3-Methylprolintane]', 'hSERT (Homo sapiens)', 'Criterion met'),
  ('CCCC(Cc1ccc(F)cc1)N1CCCC1 (stereo not shown) [4-Fluoroprolintane]', 'hSERT (Homo sapiens)', 'Criterion not met'),
  ('CCCC(Cc1ccccc1C)N1CCCC1 (stereo not shown) [2-Methylprolintane]', 'hSERT (Homo sapiens)', 'Criterion met'),
  ('CCCC(Cc1ccccc1)N1CCCC1 (stereo not shown) [Prolintane, 1-(1-phenylpentan-2-yl)pyrrolidine]', 'hSERT (Homo sapiens)', 'Criterion not met');

----------
# tested target: hSERT (Homo sapiens, UniProt P31645)
# Construct: expressed in transfected cells
# Sequence (P31645 whole entry): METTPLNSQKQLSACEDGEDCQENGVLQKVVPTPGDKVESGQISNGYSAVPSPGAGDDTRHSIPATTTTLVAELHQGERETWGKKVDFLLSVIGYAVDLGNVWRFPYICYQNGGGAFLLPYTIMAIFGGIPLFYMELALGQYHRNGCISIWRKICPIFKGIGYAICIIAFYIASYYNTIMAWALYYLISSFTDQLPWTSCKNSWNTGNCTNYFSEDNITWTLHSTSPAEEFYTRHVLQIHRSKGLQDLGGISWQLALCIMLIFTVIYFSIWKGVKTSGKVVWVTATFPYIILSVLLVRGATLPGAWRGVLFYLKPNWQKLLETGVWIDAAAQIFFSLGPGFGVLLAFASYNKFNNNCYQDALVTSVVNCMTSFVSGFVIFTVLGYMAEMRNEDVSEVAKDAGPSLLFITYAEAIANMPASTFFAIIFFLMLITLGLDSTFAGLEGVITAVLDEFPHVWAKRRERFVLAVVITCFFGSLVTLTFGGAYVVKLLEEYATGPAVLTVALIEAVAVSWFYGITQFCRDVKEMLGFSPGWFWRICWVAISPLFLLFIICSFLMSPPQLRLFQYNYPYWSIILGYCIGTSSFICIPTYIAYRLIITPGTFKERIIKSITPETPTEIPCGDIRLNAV
# Type: cell-based
# measurement conditions: Row 8 (time fraction); drug alone vs drug + monensin (Mon)
Recorded measurements of Mean diff, hSERT efflux ± Mon (Šídák's multiple comparisons test), one per entry
parameter: Mean diff, hSERT efflux ± Mon (Šídák's multiple comparisons test)

INSERT INTO results (compound, value_reported) VALUES
  ('CCCC(Cc1ccc(F)cc1)N1CCCC1 (stereo not drawn)', '-8,349'),
  ('CCCC(Cc1cccc(F)c1)N1CCCC1 (stereo not drawn)', '-4,827'),
  ('CCCC(Cc1ccc(C)cc1)N1CCCC1 (stereo not drawn)', '-4,103');

----------
# tested target: hSERT (Homo sapiens, UniProt P31645)
# Construct: expressed in transfected cells
# Assay type: cell-based
# measurement conditions: Row 4 (time fraction); drug alone vs drug + monensin (Mon)
# Protocol: A day prior to the experiment, HEK293 cells stably expressing hSERT or rat SERT (rSERT) were seeded at a density of 100,000 cells per channel into 6 channel flow ibidi slides (Gräfelfing, Germany). […] To assess residual radioactivity within the cells, they were lysed with 1% sodium dodecyl sulfate (SDS), and three final fractions were obtained. The measured tritiated substrate in each fraction was expressed as a percentage of the initial tritiated substrate present at the start of that fraction. […]
parameter: Mean diff, hSERT efflux ± Mon (Šídák's multiple comparisons test)

INSERT INTO measurements (compound, value_reported) VALUES
  ('CCCC(Cc1ccc(C)cc1)N1CCCC1 (stereo not drawn) [4-Methylprolintane]', '-0,1390'),
  ('CCCC(Cc1ccc(F)cc1)N1CCCC1 (stereo not drawn) [4-Fluoroprolintane]', '-0,08044'),
  ('CCCC(Cc1cccc(F)c1)N1CCCC1 (stereo not drawn) [3-Fluoroprolintane]', '-0,01133');
